Experiment: Quantitative highthroughput screen to assess conditional lethalithy of P12 Ichikawa cells grown in RPMI1640 with dialyzed fetal bovine serum (RPMI+ds) (AID 1963880); note: nearly all actives have a fitted effect of over 35% in size
Conditions: ATP luminescence, 48 h; P12-Ichikawa viability; series mostly up to 45.8 µM
Records with an inconclusive call do not appear. The source made the active and inactive calls. Calls come from the whole dose curve; as a rule, active = well fitted cell-killing curve with a large enough effect; inconclusive = small, poorly fitted or top-dose-only effect; inactive = flat fitted curve, though single readings scatter.
Hi! Could you answer with just one of these? active, inactive

Examples from the recorded data:
| Compound | Label value |
| --- | --- |
| CC1=C(C(=O)Nc2cc3cn[nH]c3cc2F)C(c2ccc(Cl)cc2F)N=C(c2ccnc(Cl)c2)N1 (stereo not given) | active |
| NC(=O)Nc1cc(-c2ccc(CN3CCOCC3)cc2)sc1C(N)=O | active |
| CN(C)CCN(Cc1ccc(Cl)cc1)c1ccccn1 | inactive |
| CC(=O)N(O)CCCCCNC(=O)CCC(=O)N(O)CCCCCNC(=O)CCC(=O)N(O)CCCCCN | active |
| CC(=O)NC(C)c1ccc(Oc2ccc(OC(C)C)cc2)cc1 (stereo not given) | inactive |

Query string: Would you mind telling me which call this test gave C[C@@H]1COCCN1c1cc(=O)n2c(n1)N(Cc1cncc(Cl)c1)[C@H](C(F)(F)F)CC2 ?
Result string: active

Query string: Would you mind telling me which call this test gave COC(=O)[C@]12CCC(C)(C)C[C@@H]1[C@@H]1C(=O)C=C3[C@@]4(C)C=C(C#N)C(=O)C(C)(C)[C@@H]4CC[C@@]3(C)[C@]1(C)CC2 ?
Result string: active

Query string: Would you mind telling me which call this test gave C=CCc1ccc(O)c(-c2ccc(O)c(CC=C)c2)c1 ?
Result string: active

Query string: Would you mind telling me which call this test gave CC=CCC=CCCC(=O)[C@H]1O[C@@H]1C(N)=O ?
Result string: inactive

Query string: Would you mind telling me which call this test gave O=C(O)C(O)Cc1ccc(O)c(O)c1 (stereo not given) ?
Result string: inactive
